FYI, the data here is from paper doi:10.1101/2025.02.03.636334v1.

- TARGET_UNDER_TEST: MabA (Mycobacterium tuberculosis, UniProt P9WGT3)
- Sequence (P9WGT3 whole entry): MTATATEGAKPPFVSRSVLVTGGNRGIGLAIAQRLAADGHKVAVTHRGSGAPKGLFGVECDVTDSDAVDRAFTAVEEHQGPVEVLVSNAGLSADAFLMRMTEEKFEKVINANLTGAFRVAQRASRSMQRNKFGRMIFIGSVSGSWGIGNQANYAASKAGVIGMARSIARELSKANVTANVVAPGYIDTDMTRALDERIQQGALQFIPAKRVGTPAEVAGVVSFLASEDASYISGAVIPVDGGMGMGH
- EXPERIMENTAL_DETAILS: biochemical
- STATED_CONDITIONS: read-out: % of control remaining
Kindly supply the reported remaining activity at 25 µM values for the records listed here.
Numbers only, in %.

1. O=C(c1cc(-c2ccc(F)cc2)nc2ccccc12)N1CCC(NS(=O)(=O)c2cccs2)CC1 ... 99.4

// batch mode: one remaining activity at 25 µM value per listed entry
1. Clc1ccc(-c2cc(Nc3ccccc3Cl)nc3ccccc23)cc1
2. Cc1ccc(-c2cc(-c3c(O)nc4ccccc4c3-c3ccccc3)nc3ccccc23)cc1
3. O=C(Nc1nc(-c2cccc(C(F)(F)F)c2)cs1)C1CCN(C(=O)c2ccc(F)cc2)CC1
4. Cc1ccc(-c2cc(C(=O)N3CCC(C(=O)Nc4ccc5c(c4)OCO5)CC3)c3ccccc3n2)cc1
5. O=C(Nc1ccc(O)cc1)C1CCN(C(=O)c2cccc(Oc3cccc(C(F)(F)F)c3)c2)CC1
6. O=C(Nc1ccc2c(c1)OCO2)C1CCN(C(=O)c2cc(-c3ccc(F)cc3)nc3ccccc23)CC1

Result:
1. 105
2. 101
3. 102
4. 101
5. 97.8
6. 95.5

---

- TARGET_UNDER_TEST: KasA (Mycobacterium tuberculosis)
- Sequence (P9WQD9 whole entry): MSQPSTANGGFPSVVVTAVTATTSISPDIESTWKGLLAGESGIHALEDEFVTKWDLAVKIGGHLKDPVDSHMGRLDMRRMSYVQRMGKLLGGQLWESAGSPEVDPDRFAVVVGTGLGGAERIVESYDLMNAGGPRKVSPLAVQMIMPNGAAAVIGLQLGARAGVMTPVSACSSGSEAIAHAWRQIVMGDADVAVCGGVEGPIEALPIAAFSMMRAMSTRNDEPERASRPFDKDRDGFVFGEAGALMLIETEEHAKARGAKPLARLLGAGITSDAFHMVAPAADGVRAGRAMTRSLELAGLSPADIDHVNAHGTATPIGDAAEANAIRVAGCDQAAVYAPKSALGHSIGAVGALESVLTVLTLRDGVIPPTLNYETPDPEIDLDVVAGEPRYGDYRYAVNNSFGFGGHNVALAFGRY
- EXPERIMENTAL_DETAILS: biochemical
- STATED_CONDITIONS: read-out: % KasA Inhibition at 25 µM Compound
QUANTITY_NAME: inhibition at 25 µM (%)
One number for each entry, in %.

1) O=C(Nc1nc(-c2ccccn2)cs1)c1cc(-c2ccccc2)nc2ccc(Br)cc12 ... 15.3
2) Cc1ccc(-c2cc(-c3c(O)nc4ccccc4c3-c3ccccc3)nc3ccccc23)cc1 ... 27.1
3) Cc1ccc(-c2cc(C(=O)N3CCC(C(=O)Nc4ccc5c(c4)OCO5)CC3)c3ccccc3n2)cc1 ... 11.5
4) C(=N\Nc1nc(-c2ccccc2)c2ccccc2n1)/c1cccc2cccnc12 ... 46.7
5) O=C(Nc1nc(-c2cccc(C(F)(F)F)c2)cs1)C1CCN(C(=O)c2ccc(F)cc2)CC1 ... 4.72
6) O=C(c1cc(-c2ccc(F)cc2)nc2ccccc12)N1CCC(NS(=O)(=O)c2cccs2)CC1 ... 14.7
7) O=C(Nc1ccc(S(=O)(=O)Nc2cccc(C(F)(F)F)c2)cc1)c1cc2ccccc2oc1=O ... 12
8) O=C(Nc1ccc(O)cc1)C1CCN(C(=O)c2cccc(Oc3cccc(C(F)(F)F)c3)c2)CC1 ... 31.2
9) Clc1ccc(-c2cc(Nc3ccccc3Cl)nc3ccccc23)cc1 ... 13.9
10) O=C(Nc1ccc2c(c1)OCO2)C1CCN(C(=O)c2cc(-c3ccc(F)cc3)nc3ccccc23)CC1 ... 12

Problem: What does the data say about its inhibition at 25 µM? Entry: O=C(C1=C2SC=C(c3ccccc3)N2CCCC1)c1cc(-c2ccccc2Cl)nc2ccccc12
Result: 15.6

---

- TARGET_UNDER_TEST: MabA (Mycobacterium tuberculosis, UniProt P9WGT3)
- EXPERIMENTAL_DETAILS: biochemical
- STATED_CONDITIONS: read-out: % of control remaining
QUANTITY_NAME: remaining activity at 25 µM (%)
One number for each entry, in %.

1) O=C(Nc1ccc(S(=O)(=O)Nc2cccc(C(F)(F)F)c2)cc1)c1cc2ccccc2oc1=O ... 97.9

Give remaining activity at 25 µM for each listed item.
1. O=C(Nc1nc(-c2ccccn2)cs1)c1cc(-c2ccccc2)nc2ccc(Br)cc12
2. O=C(C1=C2SC=C(c3ccccc3)N2CCCC1)c1cc(-c2ccccc2Cl)nc2ccccc12
3. C(=N\Nc1nc(-c2ccccc2)c2ccccc2n1)/c1cccc2cccnc12

Result:
1. 92.1
2. 104
3. 68.4
